target: plasma purified human AT-III (antithrombin III); test: AT-III/UFH inhibition K0.5, ratio to Catalyst Biosciences WT FIXa
measured.parameter: K0.5-mut/K0.5-wt

[
  {
    "protein": "FIXa-D104N/K106S/I251S/R318Y/R338E/E410N (protein) chain 1: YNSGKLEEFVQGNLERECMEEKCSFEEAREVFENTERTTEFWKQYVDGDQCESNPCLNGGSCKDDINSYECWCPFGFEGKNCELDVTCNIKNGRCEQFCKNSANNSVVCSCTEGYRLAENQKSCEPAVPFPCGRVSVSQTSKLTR chain 2: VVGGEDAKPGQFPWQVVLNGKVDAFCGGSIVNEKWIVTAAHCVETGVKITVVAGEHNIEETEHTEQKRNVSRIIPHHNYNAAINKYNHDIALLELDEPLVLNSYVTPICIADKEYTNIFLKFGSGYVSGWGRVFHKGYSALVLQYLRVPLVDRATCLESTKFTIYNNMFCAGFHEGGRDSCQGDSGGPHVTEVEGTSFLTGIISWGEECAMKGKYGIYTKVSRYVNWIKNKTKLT",
    "K0.5-mut/K0.5-wt": 464
  }
]

Attention now shifts to the item below.
(Q) Item FIXa-N260S/R318Y/R338E/R403E/E410N (protein) chain 1: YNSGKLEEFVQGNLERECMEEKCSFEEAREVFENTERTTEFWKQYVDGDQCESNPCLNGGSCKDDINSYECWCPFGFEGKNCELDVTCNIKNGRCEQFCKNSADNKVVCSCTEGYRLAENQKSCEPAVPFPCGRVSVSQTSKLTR chain 2: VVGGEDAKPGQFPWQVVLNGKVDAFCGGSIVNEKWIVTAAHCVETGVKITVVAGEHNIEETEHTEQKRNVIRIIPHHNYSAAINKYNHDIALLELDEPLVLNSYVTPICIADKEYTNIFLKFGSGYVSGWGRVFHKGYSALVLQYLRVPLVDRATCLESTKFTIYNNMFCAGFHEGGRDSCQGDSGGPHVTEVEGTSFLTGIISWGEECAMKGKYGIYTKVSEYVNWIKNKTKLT : provide K0.5-mut/K0.5-wt
(A) > 517
